Give log10 of MIC for every item shown.
# System: Staphylococcus aureus FDA 209NIH, P-J C-1
# Experimental Details: In vitro antibacterial activity (MIC)
# Assay type: cell-based
# Condition: Staphylococcus aureus FDA 209NIH, P-J C-1; in vitro; sodium salts; read-out: MIC
The common logarithm of MIC in µg/mL is what is listed.

Look over these answered cases.
Molecule: CCN1CCN(C(=O)N[C@@H](C(=O)NC2C(=O)N3C(C(=O)O)=C(CSc4nncs4)CS[C@H]23)c2ccc(OC(C)=O)c(Cl)c2)C(=O)C1=O (single isomer, unassigned) [IV]
Study System: Staphylococcus aureus FDA 209NIH, P-J C-1
log10 of MIC: 0.80
//
Molecule: CCOC(=O)Oc1ccc([C@@H](NC(=O)N2CCN(CC)C(=O)C2=O)C(=O)NC2C(=O)N3C(C(=O)O)=C(CSc4nncs4)CS[C@H]23)cc1Cl (single isomer, unassigned) [VI]
Study System: Staphylococcus aureus FDA 209NIH, P-J C-1
log10 of MIC: -0.41

Your task in this section: give log10 of MIC for each listed record.
1. CCN1CCN(C(=O)N[C@@H](C(=O)N[C@@H]2C(=O)N3[C@@H]2SC(C)(C)[C@@H]3C(=O)O)c2ccccc2)C(=O)C1=O [C, reference compound]
2. CC1(C)S[C@@H]2[C@H](NC(=O)C(C(=O)O)c3ccccc3)C(=O)N2[C@H]1C(=O)O (some centres unmarked) [CB-PC, sodium carbenicillin, reference compound]
3. CCN1CCN(C(=O)N[C@@H](C(=O)NC2C(=O)N3C(C(=O)O)=C(CSc4nncs4)CS[C@H]23)c2ccc(OC(C)=O)cc2)C(=O)C1=O (single isomer, unassigned) [III]
4. CCOC(=O)Oc1ccc([C@@H](NC(=O)N2CCN(CC)C(=O)C2=O)C(=O)NC2C(=O)N3C(C(=O)O)=C(CSc4nncs4)CS[C@H]23)cc1 (single isomer, unassigned) [V]
5. CCN1CCN(C(=O)N[C@@H](C(=O)NC2C(=O)N3C(C(=O)O)=C(CSc4nncs4)CS[C@H]23)c2ccc(O)c(Cl)c2)C(=O)C1=O (single isomer, unassigned) [II]

Result:
[-0.11, -0.70, 1.10, -0.41, -0.70]

###

# Experimental Details: Serum concentration and accumulative urinary excretion in rabbit
# Condition: in vivo, im, 20 mg/kg intramuscular, after 30 mins., sodium salts, Sarcina lutea assay
With a cut-off of 40 µg/mL, any concentration at 0.5 h strictly below it is called fulfilled; any concentration at 0.5 h meeting it or above is called not fulfilled.

Example cases with answers are listed next.
Molecule: CCN1CCN(C(=O)N[C@@H](C(=O)NC2C(=O)N3C(C(=O)O)=C(CSc4nncs4)CS[C@H]23)c2ccc(O)c(Cl)c2)C(=O)C1=O (single isomer, unassigned)
Label: fulfilled

Molecule: CCOC(=O)Oc1ccc([C@@H](NC(=O)N2CCN(CC)C(=O)C2=O)C(=O)NC2C(=O)N3C(C(=O)O)=C(CSc4nncs4)CS[C@H]23)cc1 (single isomer, unassigned)
Label: not fulfilled

Molecule: CCN1CCN(C(=O)N[C@@H](C(=O)NC2C(=O)N3C(C(=O)O)=C(CSc4nncs4)CS[C@H]23)c2ccc(OC(C)=O)cc2)C(=O)C1=O (single isomer, unassigned)
Label: not fulfilled

Molecule: CCN1CCN(C(=O)N[C@@H](C(=O)NC2C(=O)N3C(C(=O)O)=C(CSc4nncs4)CS[C@H]23)c2ccc(OC(C)=O)c(Cl)c2)C(=O)C1=O (single isomer, unassigned)
Label: fulfilled

Molecule: CCN1CCN(C(=O)N[C@@H](C(=O)NC2C(=O)N3C(C(=O)[O-])=C(CSc4nncs4)CS[C@H]23)c2ccc(O)cc2)C(=O)C1=O.[Na+] (single isomer, unassigned)
Label: not fulfilled

Okay, next one:
Q: Consider the molecule CCOC(=O)Oc1ccc([C@@H](NC(=O)N2CCN(CC)C(=O)C2=O)C(=O)NC2C(=O)N3C(C(=O)O)=C(CSc4nncs4)CS[C@H]23)cc1Cl (single isomer, unassigned) . Is its concentration at 0.5 h strictly less than 40 µg/mL?
Result: fulfilled

###

Consider the following compounds; for each one, report its MIC.
# Tested on: Vibrio parahaemolyticus K - 5
# Experimental Details: In vitro antibacterial activity (MIC)
# Format: cell-based
# Condition: K5; Vibrio parahaemolyticus K - 5; in vitro; sodium salts; read-out: MIC
Give bare numbers, in µg/mL.

Compound: CCOC(=O)Oc1ccc([C@@H](NC(=O)N2CCN(CC)C(=O)C2=O)C(=O)NC2C(=O)N3C(C(=O)O)=C(CSc4nncs4)CS[C@H]23)cc1Cl (single isomer, unassigned) [VI]
Measured Endpoint: MIC
Units Of Measure: µg/mL
Recorded Number: 12.5

Would you be so kind as to report MIC for each listed record?
1. Cc1nnc(SCC2=C(C(=O)O)N3C(=O)[C@@H](NC(=O)Cn4cnnn4)[C@H]3SC2)s1 [CEZ, sodium cefazolin, reference compound]
2. CCN1CCN(C(=O)N[C@@H](C(=O)NC2C(=O)N3C(C(=O)O)=C(CSc4nncs4)CS[C@H]23)c2ccc(O)c(Cl)c2)C(=O)C1=O (single isomer, unassigned) [II]

Result:
12.5
12.5

###

# Experimental Details: Serum concentration and accumulative urinary excretion in rabbit
# Condition: in vivo, im, 20 mg/kg
Would you kindly list dose excreted at 6 h for each of these molecules?
Give bare numbers, in %.

Molecule: CCN1CCN(C(=O)N[C@@H](C(=O)NC2C(=O)N3C(C(=O)O)=C(CSc4nncs4)CS[C@H]23)c2ccc(OC(C)=O)cc2)C(=O)C1=O (single isomer, unassigned)
Recorded Number: 48

Molecule: CCN1CCN(C(=O)N[C@@H](C(=O)NC2C(=O)N3C(C(=O)O)=C(CSc4nncs4)CS[C@H]23)c2ccc(O)c(Cl)c2)C(=O)C1=O (single isomer, unassigned)
Recorded Number: 24

Molecule: CCOC(=O)Oc1ccc([C@@H](NC(=O)N2CCN(CC)C(=O)C2=O)C(=O)NC2C(=O)N3C(C(=O)O)=C(CSc4nncs4)CS[C@H]23)cc1Cl (single isomer, unassigned)
Recorded Number: 17.4

Molecule: CCN1CCN(C(=O)N[C@@H](C(=O)NC2C(=O)N3C(C(=O)O)=C(CSc4nncs4)CS[C@H]23)c2ccc(OC(C)=O)c(Cl)c2)C(=O)C1=O (single isomer, unassigned)
Recorded Number: 27

Q: Any idea what dose excreted at 6 h was measured for CCOC(=O)Oc1ccc([C@@H](NC(=O)N2CCN(CC)C(=O)C2=O)C(=O)NC2C(=O)N3C(C(=O)O)=C(CSc4nncs4)CS[C@H]23)cc1 (single isomer, unassigned) ?
Result: 24.1

###

# Experimental Details: Serum concentration and accumulative urinary excretion in rabbit
# Condition: in vivo, im, 20 mg/kg intramuscular, after 6 hrs., sodium salts, Sarcina lutea assay, read-out: ACCUMULATIVE URINARY EXCRETION
# Protocol: Given below are the test results of in vitro antibacterial activity studies, serum concentrations and accumulative urinary excretions in rabbits and the protecting effects in mice, of some representative compounds of the invention. […] Each of the test compounds (20 mg/kg) was intramuscularly administered to one group of 3 rabbits, and the amounts of antibiotics were measured by a conventional method, using Sarcina lutea.
Measured Endpoint: dose excreted at 6 h (%)
One number for each entry, in %.

Q: For the compound shown here, CCN1CCN(C(=O)N[C@@H](C(=O)NC2C(=O)N3C(C(=O)[O-])=C(CSc4nncs4)CS[C@H]23)c2ccc(O)cc2)C(=O)C1=O.[Na+] (single isomer, unassigned) , give the reported dose excreted at 6 h.
Result: 33.4

###

Answer each item with its documented ED50 in Pseudomonas infection in mice.
# Test system: Pseudomonas aerugenosa E 2 strain
# Experimental Details: ED50 in Pseudomonas infection in mice
# Format: in vivo
# Condition: ICR-JCL mouse, male, 20g; P. aerugenosa E 2 3.6 × 10^4 intraperitoneal; compound intramuscular after 2 hrs.; ED50 after 7 days; sodium salts
Answers are plain numbers, in mg/mouse.

Below: 5 molecules and their reported ED50 in Pseudomonas infection in mice.
Molecule: CCN1CCN(C(=O)N[C@@H](C(=O)NC2C(=O)N3C(C(=O)O)=C(CSc4nncs4)CS[C@H]23)c2ccc(OC(C)=O)cc2)C(=O)C1=O (single isomer, unassigned)
Measured Endpoint: ED50 in Pseudomonas infection in mice
Units Of Measure: mg/mouse
Recorded Number: 2.6
--
Molecule: CC1(C)S[C@@H]2[C@H](NC(=O)C(C(=O)O)c3ccccc3)C(=O)N2[C@H]1C(=O)O (stereo partly shown) [CB-PC, sodium carbenicillin, reference compound]
Measured Endpoint: ED50 in Pseudomonas infection in mice
Units Of Measure: mg/mouse
Recorded Number: 8.1
--
Molecule: CCN1CCN(C(=O)N[C@@H](C(=O)NC2C(=O)N3C(C(=O)O)=C(CSc4nncs4)CS[C@H]23)c2ccc(O)c(Cl)c2)C(=O)C1=O (single isomer, unassigned)
Measured Endpoint: ED50 in Pseudomonas infection in mice
Units Of Measure: mg/mouse
Recorded Number: 2.2
--
Molecule: CCN1CCN(C(=O)N[C@@H](C(=O)NC2C(=O)N3C(C(=O)[O-])=C(CSc4nncs4)CS[C@H]23)c2ccc(O)cc2)C(=O)C1=O.[Na+] (single isomer, unassigned)
Measured Endpoint: ED50 in Pseudomonas infection in mice
Units Of Measure: mg/mouse
Recorded Number: 3.0
--
Molecule: CCOC(=O)Oc1ccc([C@@H](NC(=O)N2CCN(CC)C(=O)C2=O)C(=O)NC2C(=O)N3C(C(=O)O)=C(CSc4nncs4)CS[C@H]23)cc1Cl (single isomer, unassigned)
Measured Endpoint: ED50 in Pseudomonas infection in mice
Units Of Measure: mg/mouse
Recorded Number: 0.8

Provide each entry's ED50 in Pseudomonas infection in mice from the list below.
1. CCOC(=O)Oc1ccc([C@@H](NC(=O)N2CCN(CC)C(=O)C2=O)C(=O)NC2C(=O)N3C(C(=O)O)=C(CSc4nncs4)CS[C@H]23)cc1 (single isomer, unassigned)
2. CCN1CCN(C(=O)N[C@@H](C(=O)NC2C(=O)N3C(C(=O)O)=C(CSc4nncs4)CS[C@H]23)c2ccc(OC(C)=O)c(Cl)c2)C(=O)C1=O (single isomer, unassigned)

Result:
1: 1.0; 2: 1.8
